Test system: HIV
Experiment: Antiviral activity against HIV: reversal of cytopathic effect in MT4 cells, propidium iodide dye uptake
Format: cell-based
Settings: Human immunodeficiency virus 1, 120 h, HIV-1 (strain 3B) or HIV-2 (Zagury strain), not stated which, 5 days
Procedure: Anti-HIV activity of compounds of formula (I) was determined using the method of Averett D. R., 1989, J. Virol. Methods, 23, pp263-276, by measuring the ability of the compound to reverse the cytopathic effect of HIV infection. This was determined by a quantitative assessment of cell growth monitored at the fifth day post infection by a propidium iodide dye uptake test. […] Cell number was determined using a method which measures the fluorescence of a dye (propidium iodide) which binds to DNA. […]
Readout name: IC50
Hi, when you answer, please include the unit after the number. Thanks!

What value of IC50 has been reported for the following compound? `CN(C)c1nc(N)nc2c1ncn2[C@H]1C[C@H](F)[C@@H](CO)O1`
8 µM
